- test: qHTS Screen of the MIPE 4.0 Collection Against Ewings Sarcoma (TC32) (AID 1259256); further: nearly all actives have a fitted effect of over 45% in size
- run.conditions: TC32 Ewing sarcoma viability, CellTiter-Glo, 48 h; series mostly up to 45.8 µM
Results filed as inconclusive are left out. Calls of active or inactive are those of the source. The call rests on the fitted dose curve; in most records, active means well fitted inhibition curve with a large enough effect; inconclusive means small, poorly fitted or top-dose-only effect; inactive means no such curve, though single readings can be large or run the other way.
Outcomes: yes (1) = active, no (0) = inactive

chemical.structure	class.assignment
COc1cc(N2CCC(C(N)=O)CC2)ccc1Nc1nc(N)c(Cl)c(Nc2ccccc2S(=O)(=O)C(C)C)n1	yes (1)
CCOC(=O)[C@H](CCc1ccccc1)N[C@@H](C)C(=O)N1[C@@H](C(=O)O)C[C@H]2CCC[C@@H]21	yes (1)
Cc1ccc([N+](=O)[O-])cc1S(=O)(=O)N(C)N=Cc1cnc2ccc(Br)cn12	yes (1)
OC[C@@H](O)[C@@H](O)[C@H](O)[C@@H](O)CO	no (0)
CN(C)CCN1C(=O)c2cccc3cc(N)cc(c23)C1=O	no (0)
Oc1cc(-c2nc(-c3ccccc3)[nH]c2-c2ccncc2)ccc1Cl	yes (1)
NC(=NCCCCCCN=C(N)N=C(N)Nc1ccc(Cl)cc1)N=C(N)Nc1ccc(Cl)cc1	yes (1)
O=C(NNC(=O)c1ccc(CNS(=O)(=O)c2ccc(F)c(Cl)c2)cc1)c1ccccc1	no (0)
Cc1cncc2cccc(S(=O)(=O)N3CCCN(C(=O)CN)C[C@@H]3C)c12	yes (1)

Each recorded value in this set is attributed to PubChem BioAssay (NCATS).
